- System: Escherichia coli TOP10
- protocolText: shrunken log2 fold change of peptide-encoding DNA abundance (4.5 h post-induction vs induction); higher = less antimicrobial activity (less host growth inhibition)
- conditions: time post-induction: 4.5 h; library: site-saturation at positions 5, 18, 19, 20
Each item that follows carries a reported shrunken log2 fold change.
Lab note: record just the number, no unit beside it.

# count of solved cases: 10
# residues, recordedMetric, readoutValue
measured = [
    ("RRIRCRPPRLPRPRPRPMPMPRP", "shrunken log2 fold change", -0.174),
    ("RRIRSRPPRLPRPRPRPFHSPRP", "shrunken log2 fold change", -0.0807),
    ("RRIRPRPPRLPRPRPRPYATPRP", "shrunken log2 fold change", -0.446),
    ("RRIRHRPPRLPRPRPRPDVWPRP", "shrunken log2 fold change", 0.15),
    ("RRIRHRPPRLPRPRPRPREYPRP", "shrunken log2 fold change", -0.0589),
    ("RRIRDRPPRLPRPRPRPNNHPRP", "shrunken log2 fold change", -0.543),
    ("RRIRMRPPRLPRPRPRPSIQPRP", "shrunken log2 fold change", 0.0104),
    ("RRIRYRPPRLPRPRPRPGVDPRP", "shrunken log2 fold change", -0.0308),
    ("RRIRTRPPRLPRPRPRPKGLPRP", "shrunken log2 fold change", -0.117),
    ("RRIRKRPPRLPRPRPRPPHHPRP", "shrunken log2 fold change", 0.322),
]

Lookup: Tell me shrunken log2 fold change reported for RRIRGRPPRLPRPRPRPHSAPRP
Found: 0.0365

Lookup: Tell me shrunken log2 fold change reported for RRIRTRPPRLPRPRPRPHLGPRP
Found: 0.0458

Lookup: Tell me shrunken log2 fold change reported for RRIRNRPPRLPRPRPRPVIIPRP
Found: -0.0963

* * *

- System: Escherichia coli TOP10
- protocolText: shrunken log2 fold change of peptide-encoding DNA abundance (4.5 h post-induction vs induction); higher = less antimicrobial activity (less host growth inhibition)
- conditions: time post-induction: 4.5 h; library: site-saturation at positions 5, 18, 19, 20
Each item that follows carries a reported shrunken log2 fold change.

# residues, readoutValue
records = [
    ("RRIRSRPPRLPRPRPRPDVTPRP", -0.0165),
    ("RRIRDRPPRLPRPRPRPHYWPRP", -0.282),
]

Now look at this one.
Lookup: Tell me shrunken log2 fold change reported for RRIRGRPPRLPRPRPRPQRYPRP
Found: -0.00818

* * *

- Test system: Escherichia coli TOP10
- protocolText: shrunken log2 fold change of peptide-encoding DNA abundance (4.5 h post-induction vs induction); higher = less antimicrobial activity (less host growth inhibition)
- conditions: time post-induction: 4.5 h; library: site-saturation at positions 5, 18, 19, 20
recordedMetric: shrunken log2 fold change
Lab note: record just the number, no unit beside it.

# count of solved cases: 2
# residues, subjectOfTest, recordedMetric, readoutValue
records = [
    ("RRIRLRPPRLPRPRPRPMKQPRP", "Escherichia coli TOP10", "shrunken log2 fold change", 0.132),
    ("RRIRIRPPRLPRPRPRPWPTPRP", "Escherichia coli TOP10", "shrunken log2 fold change", 0.331),
]

Lookup: Tell me shrunken log2 fold change reported for RRIRHRPPRLPRPRPRPGSLPRP
Found: 0.134

Lookup: Tell me shrunken log2 fold change reported for RRIRIRPPRLPRPRPRPHDSPRP
Found: -0.398

Lookup: Tell me shrunken log2 fold change reported for RRIRKRPPRLPRPRPRPMYEPRP
Found: -0.132

Lookup: Tell me shrunken log2 fold change reported for RRIRHRPPRLPRPRPRPSYWPRP
Found: 0.0148

Lookup: Tell me shrunken log2 fold change reported for RRIRHRPPRLPRPRPRPPQVPRP
Found: -0.0255

* * *

- Tested on: Escherichia coli TOP10
- protocolText: shrunken log2 fold change of peptide-encoding DNA abundance (4.5 h post-induction vs induction); higher = less antimicrobial activity (less host growth inhibition)
- conditions: time post-induction: 4.5 h; library: site-saturation at positions 5, 18, 19, 20
Each item that follows carries a reported shrunken log2 fold change.
Lab note: record just the number, no unit beside it.

# residues, shrunken log2 fold change
data = [
    ("RRIRHRPPRLPRPRPRPHTDPRP", -0.212),
]

Lookup: Tell me shrunken log2 fold change reported for RRIRWRPPRLPRPRPRPYIQPRP
Found: -1.07

Lookup: Tell me shrunken log2 fold change reported for RRIRSRPPRLPRPRPRPNVRPRP
Found: -0.0771

Lookup: Tell me shrunken log2 fold change reported for RRIRVRPPRLPRPRPRPQLKPRP
Found: -0.177

* * *

- Test system: Escherichia coli TOP10
- protocolText: shrunken log2 fold change of peptide-encoding DNA abundance (4.5 h post-induction vs induction); higher = less antimicrobial activity (less host growth inhibition)
- conditions: time post-induction: 4.5 h; library: site-saturation at positions 5, 18, 19, 20
# class assignment by measured shrunken log2 fold change: bucket A (below -0.1), bucket B (-0.1 to below 0.1), bucket C (0.1 or more)

See these solved cases before continuing.
# residues, classAssignment
records = [
    ("RRIRPRPPRLPRPRPRPYCLPRP", "bucket A"),
    ("RRIRERPPRLPRPRPRPWGMPRP", "bucket C"),
    ("RRIRRRPPRLPRPRPRPWHRPRP", "bucket A"),
    ("RRIRLRPPRLPRPRPRPGPHPRP", "bucket B"),
    ("RRIRLRPPRLPRPRPRPAHEPRP", "bucket C"),
    ("RRIRDRPPRLPRPRPRPCHAPRP", "bucket B"),
    ("RRIRPRPPRLPRPRPRPEEVPRP", "bucket B"),
    ("RRIRRRPPRLPRPRPRPMLPPRP", "bucket B"),
    ("RRIRRRPPRLPRPRPRPTGQPRP", "bucket C"),
    ("RRIRARPPRLPRPRPRPGQLPRP", "bucket C"),
]

Lookup: Please indicate the class for RRIRDRPPRLPRPRPRPRQKPRP based on its shrunken log2 fold change.
Found: bucket C

Lookup: Please indicate the class for RRIRARPPRLPRPRPRPCDHPRP based on its shrunken log2 fold change.
Found: bucket B

* * *

- Tested on: Escherichia coli TOP10
- protocolText: shrunken log2 fold change of peptide-encoding DNA abundance (4.5 h post-induction vs induction); higher = less antimicrobial activity (less host growth inhibition)
- conditions: time post-induction: 4.5 h; library: site-saturation at positions 5, 18, 19, 20
Each item that follows carries a reported shrunken log2 fold change.
Lab note: record just the number, no unit beside it.

# count of solved cases: 3
# residues, shrunken log2 fold change
measured = [
    ("RRIRSRPPRLPRPRPRPDWCPRP", 0.224),
    ("RRIRNRPPRLPRPRPRPRNCPRP", -0.0144),
    ("RRIRDRPPRLPRPRPRPACGPRP", 0.684),
]

Now look at this one.
Lookup: Tell me shrunken log2 fold change reported for RRIRARPPRLPRPRPRPWLPPRP
Found: 0.197

* * *

- System: Escherichia coli TOP10
- protocolText: shrunken log2 fold change of peptide-encoding DNA abundance (4.5 h post-induction vs induction); higher = less antimicrobial activity (less host growth inhibition)
- conditions: time post-induction: 4.5 h; library: site-saturation at positions 5, 18, 19, 20
Each item that follows carries a reported shrunken log2 fold change.
Lab note: record just the number, no unit beside it.

# count of solved cases: 2
# residues, shrunken log2 fold change
rows = [
    ("RRIRIRPPRLPRPRPRPTNLPRP", -0.606),
    ("RRIRHRPPRLPRPRPRPVMMPRP", -0.123),
]

Lookup: Tell me shrunken log2 fold change reported for RRIRYRPPRLPRPRPRPKVCPRP
Found: 0.0165

Lookup: Tell me shrunken log2 fold change reported for RRIRVRPPRLPRPRPRPNMCPRP
Found: -0.576

Lookup: Tell me shrunken log2 fold change reported for RRIRARPPRLPRPRPRPDVVPRP
Found: -0.101

* * *

- System: Escherichia coli TOP10;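 note: peptides expressed intracellularly from a pBAD plasmid library in pooled LB shake-flask culture, induced with 0.3% L-arabinose, DNA abundance read by NGS, three biological replicates, DESeq2 with apeglm shrinkage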
- protocolText: shrunken log2 fold change of peptide-encoding DNA abundance (4.5 h post-induction vs induction); higher = less antimicrobial activity (less host growth inhibition)
- conditions: time post-induction: 4.5 h; library: site-saturation at positions 5, 18, 19, 20
recordedMetric: shrunken log2 fold change
Lab note: record just the number, no unit beside it.

# residues, shrunken log2 fold change
rows = [
    ("RRIRKRPPRLPRPRPRPQNYPRP", -0.196),
]

Lookup: Tell me shrunken log2 fold change reported for RRIRVRPPRLPRPRPRPVICPRP
Found: -0.0928

Lookup: Tell me shrunken log2 fold change reported for RRIRCRPPRLPRPRPRPNWIPRP
Found: -0.419

Lookup: Tell me shrunken log2 fold change reported for RRIRTRPPRLPRPRPRPAAGPRP
Found: 0.375

Lookup: Tell me shrunken log2 fold change reported for RRIRLRPPRLPRPRPRPWARPRP
Found: 0.482

Lookup: Tell me shrunken log2 fold change reported for RRIRVRPPRLPRPRPRPFSKPRP
Found: -0.138
